tested-system: Epidermal growth factor receptor (Homo sapiens)
Sequence (P00533 whole entry): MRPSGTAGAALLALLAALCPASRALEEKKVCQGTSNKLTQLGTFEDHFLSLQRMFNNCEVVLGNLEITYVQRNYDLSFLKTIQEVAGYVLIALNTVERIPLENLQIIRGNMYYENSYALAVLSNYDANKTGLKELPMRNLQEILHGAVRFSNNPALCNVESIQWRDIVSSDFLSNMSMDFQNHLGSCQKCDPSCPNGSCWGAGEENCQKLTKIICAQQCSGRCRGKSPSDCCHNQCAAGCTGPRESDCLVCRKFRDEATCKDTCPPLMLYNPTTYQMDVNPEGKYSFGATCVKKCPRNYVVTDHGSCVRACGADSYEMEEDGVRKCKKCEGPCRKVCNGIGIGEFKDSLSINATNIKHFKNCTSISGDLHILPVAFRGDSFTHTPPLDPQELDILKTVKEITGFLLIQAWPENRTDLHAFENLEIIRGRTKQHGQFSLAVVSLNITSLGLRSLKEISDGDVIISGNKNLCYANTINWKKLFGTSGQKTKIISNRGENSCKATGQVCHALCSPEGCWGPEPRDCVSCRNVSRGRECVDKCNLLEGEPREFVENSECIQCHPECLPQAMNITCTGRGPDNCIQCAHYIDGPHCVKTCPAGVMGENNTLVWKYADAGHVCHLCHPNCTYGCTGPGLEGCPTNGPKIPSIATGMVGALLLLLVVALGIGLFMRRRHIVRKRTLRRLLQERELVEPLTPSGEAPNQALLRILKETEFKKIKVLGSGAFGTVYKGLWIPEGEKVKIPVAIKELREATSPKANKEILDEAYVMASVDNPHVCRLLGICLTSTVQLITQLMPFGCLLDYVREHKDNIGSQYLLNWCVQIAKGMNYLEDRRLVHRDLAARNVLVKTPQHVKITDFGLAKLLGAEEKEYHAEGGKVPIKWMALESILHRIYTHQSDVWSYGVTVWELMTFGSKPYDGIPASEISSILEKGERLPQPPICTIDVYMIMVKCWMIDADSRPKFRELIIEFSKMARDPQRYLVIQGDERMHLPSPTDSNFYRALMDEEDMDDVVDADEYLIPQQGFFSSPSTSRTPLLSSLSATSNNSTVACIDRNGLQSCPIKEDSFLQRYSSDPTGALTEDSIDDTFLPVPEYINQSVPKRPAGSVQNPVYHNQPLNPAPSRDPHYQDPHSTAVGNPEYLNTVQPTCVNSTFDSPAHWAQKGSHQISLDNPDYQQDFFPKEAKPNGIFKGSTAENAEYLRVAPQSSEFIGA
pIC50: −log10 of the molar value.

- entry-smiles: "COc1cc2c(cc1OC)Nc1ncn(C)c(=O)c1C2"
  pIC50: 3.80

----------
IC50 values, listed per item
tested-system: cAMP-dependent protein kinase (PKA) (Homo sapiens, UniProt P22694+P17612+P22612)
test-name: Inhibition of cAMP-dependent kinase (Protein kinase A)
Type: protein assay
measured-endpoint: IC50

- entry-smiles: "Oc1cc(Nc2ccccc2)ncn1"
  result: "> 4 mM"
- entry-smiles: "COc1cc2c(cc1OC)Nc1ncn(CCN3CCOCC3)c(=O)c1C2"
  result: "> 1 mM"
- entry-smiles: "COc1cc2c(cc1OC)Nc1ncn(C)c(=O)c1C2"
  result: "> 3 mM"
- entry-smiles: "CCN1c2ccccc2Cc2c(O)ncnc21"
  result: "> 0.96 mM"
- entry-smiles: "COc1ccc2c(c1)Cc1c(O)ncnc1N2"
  result: "> 3 mM"
- entry-smiles: "COc1cc2cc3c(O)ncnc3nc2cc1OC"
  result: "> 0.75 mM"
- entry-smiles: "Oc1ncnc2c1Cc1ccccc1N2"
  result: "> 3 mM"
- entry-smiles: "COc1ccc2c(c1)Nc1ncnc(O)c1C2"
  result: "> 3 mM"
- entry-smiles: "COc1cc2c(cc1OC)Nc1ncnc(O)c1C2"
  result: "> 3 mM"
- entry-smiles: "CCc1nc(O)c2c(n1)Nc1ccccc1C2"
  result: "> 3 mM"

----------
IC50 values, listed per item
tested-system: Proto-oncogene tyrosine-protein kinase Src (Homo sapiens, UniProt P12931)
Sequence (P12931 2-536 limits assumed): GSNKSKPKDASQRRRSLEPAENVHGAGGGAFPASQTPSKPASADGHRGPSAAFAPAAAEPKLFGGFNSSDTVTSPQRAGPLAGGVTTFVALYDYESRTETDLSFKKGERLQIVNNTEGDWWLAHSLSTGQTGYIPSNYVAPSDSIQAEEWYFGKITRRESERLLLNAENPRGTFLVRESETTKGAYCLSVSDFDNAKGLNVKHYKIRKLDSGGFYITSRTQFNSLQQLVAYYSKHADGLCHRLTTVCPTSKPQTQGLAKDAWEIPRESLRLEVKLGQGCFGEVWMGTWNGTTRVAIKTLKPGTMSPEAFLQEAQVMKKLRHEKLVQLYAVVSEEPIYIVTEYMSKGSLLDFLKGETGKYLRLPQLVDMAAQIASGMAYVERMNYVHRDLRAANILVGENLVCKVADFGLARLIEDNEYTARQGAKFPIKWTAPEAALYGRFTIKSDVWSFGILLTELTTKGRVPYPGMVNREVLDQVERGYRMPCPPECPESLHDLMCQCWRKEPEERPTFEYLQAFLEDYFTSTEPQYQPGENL
test-name: Inhibition of cellular oncogene pp60 c-src
measured-endpoint: IC50 (µM)

- entry-smiles: "COc1cc2c(cc1OC)Nc1ncn(CCN3CCOCC3)c(=O)c1C2"
  result-number: 105
- entry-smiles: "COc1cc2c(cc1OC)Nc1ncn(C)c(=O)c1C2"
  result-number: 1.2
- entry-smiles: "CCc1nc(O)c2c(n1)Nc1ccccc1C2"
  result-number: 38
- entry-smiles: "CCN1c2ccccc2Cc2c(O)ncnc21"
  result-number: 550
- entry-smiles: "Oc1[nH]cnc2nc3ccccc3c1-2"
  result-number: 293
- entry-smiles: "Oc1cc(Nc2ccccc2)ncn1"
  result-number: 1550
- entry-smiles: "COc1cc2c(cc1OC)Nc1ncnc(O)c1C2"
  result-number: 0.5
- entry-smiles: "Oc1ncnc2c1Cc1ccccc1N2"
  result-number: 9.1
- entry-smiles: "COc1cc2cc3c(O)ncnc3nc2cc1OC"
  result-number: 32
- entry-smiles: "COc1ccc2c(c1)Cc1c(O)ncnc1N2"
  result-number: 3.7
- entry-smiles: "COc1ccc2c(c1)Nc1ncnc(O)c1C2"
  result-number: 0.5
